Attribute: melting point

structure: CC(C)n1cc(C=O)c(-c2ccc([N+](=O)[O-])o2)n1
melting point: 168 to 170 °C
//
structure: CCOC(=O)c1cc2cc(C#N)ccc2[nH]1
melting point: 181 to 182 °C
//
structure: CCN(CC)CCOc1cccc2c1c1ccccc1n2Cc1ccccc1
melting point: 79 to 80.5 °C

----------
molecule: Cn1cc(Br)cc(Br)c1=O
melting point: 87 to 88 °C
--
molecule: Cc1nc2ncnn2c(Cl)c1C1CCCC1
melting point: 87 °C
--
molecule: CN(CCNc1ccc2c3c(c4c(OCc5ccccc5)ccc(OCc5ccccc5)c4cc13)NN2CCN(CCO)Cc1ccccc1)Cc1ccccc1
melting point: 147 to 149 °C
--
molecule: COc1ccc(C=C2C(=O)N(C3=NCCS3)c3ccccc32)cc1
melting point: 164 to 167 °C
--
molecule: NCCN1CCN(CC(=O)N2c3ccccc3C(=O)Nc3cccnc32)CC1
melting point: 188 to 190 °C
--
molecule: CCC(O)(CC(=O)OC(C)(C)C)c1ccn(Cc2cc3cc(OCc4ccccc4)c(F)cc3nc2I)c(=O)c1 (stereo not given)
melting point: 174 °C
--
molecule: CC(OCc1cc2nc(Cl)ccc2n1S(=O)(=O)c1ccc2ncsc2c1)C(=O)O (stereo not given)
melting point: 179 °C
--
molecule: O=c1ccccn1[C@@H]1c2ccccc2OCC[C@H]1O (relative stereo)
melting point: 232 to 234 °C
--
molecule: CCCCCCCNC(=O)Nc1ccccc1CCc1cc(C(C)(C)C)c(O)c(C(C)(C)C)c1
melting point: 100 °C
--
molecule: Cc1cc(Br)ccc1N1C(=O)c2ccc(Cl)cc2C1=O
melting point: 210 to 212 °C
--
molecule: O=C1c2ccc(Cl)cc2C(O)N1CCBr (stereo not given)
melting point: 164 to 168 °C
--
molecule: COC(=O)Cc1nc(-c2ccccc2)c(-c2ccccc2)o1
melting point: 87 to 91 °C
--
molecule: CCOC(=O)C(NC(=O)OC(C)(C)C)c1csc(NC(=O)CCl)n1 (stereo not given)
melting point: 192 to 193 °C
--
molecule: C=CCn1c(Br)c(C[C@H](NC(C)=O)C(=O)OC)c2c(Br)c(OC)c(Br)cc21
melting point: 191 to 192 °C
--
molecule: CC(=O)C(=Cc1cccc([N+](=O)[O-])c1)C(=O)OCCCl
melting point: 95 to 97 °C
